System: hTRPV3 (Homo sapiens (Human), UniProt Q8NET8)
Sequence (Q8NET8 whole entry): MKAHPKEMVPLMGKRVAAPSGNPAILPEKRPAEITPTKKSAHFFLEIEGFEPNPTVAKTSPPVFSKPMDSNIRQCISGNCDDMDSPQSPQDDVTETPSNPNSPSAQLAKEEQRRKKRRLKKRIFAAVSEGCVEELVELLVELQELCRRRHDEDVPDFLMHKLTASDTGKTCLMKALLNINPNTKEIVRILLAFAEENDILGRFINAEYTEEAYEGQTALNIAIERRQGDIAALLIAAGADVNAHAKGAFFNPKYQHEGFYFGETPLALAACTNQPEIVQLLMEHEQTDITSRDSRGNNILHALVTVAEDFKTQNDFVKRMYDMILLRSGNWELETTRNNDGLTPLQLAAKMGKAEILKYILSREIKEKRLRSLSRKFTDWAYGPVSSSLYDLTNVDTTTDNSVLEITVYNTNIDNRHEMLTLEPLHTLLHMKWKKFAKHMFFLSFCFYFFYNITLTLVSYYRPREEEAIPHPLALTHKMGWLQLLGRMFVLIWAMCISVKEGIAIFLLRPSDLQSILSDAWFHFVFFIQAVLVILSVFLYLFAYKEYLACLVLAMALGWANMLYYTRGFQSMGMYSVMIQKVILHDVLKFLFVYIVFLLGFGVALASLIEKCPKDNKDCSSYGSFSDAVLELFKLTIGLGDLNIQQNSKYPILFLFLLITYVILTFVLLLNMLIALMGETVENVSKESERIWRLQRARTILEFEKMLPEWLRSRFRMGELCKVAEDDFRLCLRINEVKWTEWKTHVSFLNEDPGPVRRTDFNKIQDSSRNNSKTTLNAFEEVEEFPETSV
Measurement protocol: Whole-cell patch clamp, hTRPV3 Phase 1 / Phase 2 currents
Assay type: cell-based
Cond: Phase 1 current; read-out: hTRPV3 (nM) (Phase 1)
Parameter log10(IC50): see the listing below.
Endpoint name: log10(IC50) (log10 of the value in nM)

Chem smiles	log10(IC50)
CCc1ccccc1Oc1ccc(N2CC[C@H](Oc3ncccc3F)C2)c(CO)c1	1.28
CCc1ccccc1-c1ccc(CO)c(N2CC[C@H](Oc3ncccc3Cl)C2)c1	1.84
Cc1ccc(C(=O)c2ccc(N3CC[C@H](Oc4ncccc4Cl)C3)c(CO)c2)cc1	1.80
NC(=O)c1cc(-c2ccncc2)ccc1N1CC[C@H](Oc2ccc(C(F)(F)F)cn2)C1	3.45
OCc1cc(-c2ccccc2F)ccc1N1CC[C@H](Oc2ccc(C(F)(F)F)cn2)C1	1.86

---

System: hTRPV3 (Homo sapiens (Human), UniProt Q8NET8)
Measurement protocol: Whole-cell patch clamp, hTRPV3 Phase 1 / Phase 2 currents
Type: cell-based
Cond: Phase 1 current, inward, whole-cell patch clamp; read-out: hTRPV3 Patch P1 Inwd
pIC50: −log10 of the molar value. Counter-ions that a name gives are not always drawn.
Parameter pIC50: see the listing below.
Endpoint name: pIC50

Compound	Observed
OCc1cc(-c2ccccc2)ccc1N1CC[C@H](Oc2ccc(C(F)(F)F)nn2)C1	< 6.00
Cc1cccnc1O[C@H]1CCN(c2ccc(-c3ccccc3)cc2C(C)O)C1 (stereo partly drawn)	6.00 to 7.00
CNC(=O)c1ccccc1N1CC[C@H](Oc2ccc(C(F)(F)F)cn2)C1	< 6.00
O=C1C(Oc2ccc3ccccc3n2)CCN1c1ccc(-c2ccccc2)cc1 (stereo not drawn)	< 6.00
OCc1cc(C2CCOCC2)ccc1N1CC[C@H](Oc2ccc(C(F)(F)F)cn2)C1	< 6.00
Cc1ccccc1-c1ccc(N2CC[C@H](Oc3ccc(C(F)(F)F)cn3)C2)c(CO)n1	< 6.00
O=C(Nc1ccc(F)cc1)c1ccc(N2CC[C@H](Oc3ncccc3Cl)C2)c(CCO)c1	< 6.00
CC(C)c1ccccc1Oc1ccc(N2CC[C@H](Oc3ccc(C#N)cn3)C2)c(CO)c1	7.00 to 8.00
CCc1ccccc1Oc1ccc(C2CCN(C(=O)c3ccccn3)C2)c(C(N)=O)c1 (stereo not drawn)	< 6.00
Cc1ccc(O[C@H]2CCN(c3ccc(-c4ccccn4)nc3CO)C2)nc1	< 6.00
OCc1cc(-c2ccccc2)ccc1N1CC[C@@H](Oc2ccc(C(F)(F)F)cn2)C1	6.00 to 7.00
CCc1ccccc1-c1ccc(C2CCN(C(=O)c3cc(OC)ccn3)C2)c(CO)c1 (stereo not drawn)	6.00 to 7.00
O=C1C(Oc2ccc3ccccc3n2)CCN1c1ccccc1Cl (stereo not drawn)	< 6.00
Cc1ccc(O[C@H]2CCN(c3ccc(Oc4ccccc4C)nc3CO)C2)nc1	< 6.00
Cc1cccc(C(O)c2ccc(C3CCN(C(=O)c4ncccc4Cl)C3)c(CO)c2)c1 (stereo not drawn) [Compound 2-2]	6.00 to 7.00
CC(C)c1ccccc1-c1ccc([C@@H]2CCN(C(=O)c3ccc(F)cn3)C2)c(CO)c1	> 8.00
O=C(c1ccc(CCO)c(N2CC[C@H](Oc3ncccc3Cl)C2)c1)c1ccccc1Cl	6.00 to 7.00
O=C(O)c1ccccc1N1CC[C@H](Oc2ccc(C(F)(F)F)cn2)C1	< 6.00
N#Cc1ccccc1-c1ccc(N2CC[C@H](Oc3ncccc3F)C2)c(CO)n1	< 6.00
OCc1cc(Br)ccc1N1C[C@@H](O)[C@H](Oc2ccc(C(F)(F)F)cn2)C1	< 6.00
Cc1cccc(CN2CCC(c3ccc(Oc4ccccc4C(C)C)cc3CO)C2)n1 (stereo not drawn) [Compound 2-94, hydrochloride]	6.00 to 7.00
CC(C)c1ccccc1Oc1ccc(C2CCN(C(=O)c3ccccn3)C2)c(CO)c1 (stereo not drawn)	6.00 to 7.00
OCCOc1cc(-c2ccccc2)ccc1N1CC[C@@H](Oc2ccc(C(F)(F)F)cn2)C1	< 6.00
N#Cc1ccccc1N1CC[C@H](Oc2ccc(C(F)(F)F)cn2)C1	< 6.00
Cc1ccc(O[C@H]2CCN(c3ccc(-c4ccccc4C)nc3CO)C2)nc1	6.00 to 7.00
NC(=O)c1cc(C(=O)c2ccccc2)ccc1N1CC[C@H](Oc2ccc(C(F)(F)F)cn2)C1	< 6.00
NC(=O)c1ccccc1-c1ccc(N2CC[C@H](Oc3ccc(C(F)(F)F)cn3)C2)c(CO)c1	< 6.00
OCCc1cc(C(O)c2ccc(F)cc2)ccc1N1CC[C@H](Oc2ncccc2Cl)C1 (stereo partly drawn)	< 6.00
N#Cc1ccccc1N1CCC(Oc2ccc3ccccc3n2)C1=O (stereo not drawn)	< 6.00
OCCc1ccc(C(O)c2ccccc2Cl)cc1N1CC[C@H](Oc2ncccc2Cl)C1 (stereo partly drawn)	< 6.00
O=C(NCCO)c1cc(-c2ccccc2)ccc1N1CC[C@H](Oc2ccc(C(F)(F)F)cn2)C1	< 6.00
O=C(c1ccc(F)cc1)c1ccc(N2CC[C@H](Oc3ncccc3Cl)C2)c(CO)c1	7.00 to 8.00
COc1ccccc1-c1ccc(N2CC[C@H](Oc3ncccc3F)C2)c(CO)n1	< 6.00
